# Tested on: EA (URMC -3)
# assay summary: MIC determination
# Type: cell-based
# condition notes: CAMH broth, 20 μM Apo-Transferrin, 37° C., 18 hours
measured parameter: Mimimum Inhibitory Concentrations, EA (URMC -3) (microgram/mL)
Kindly provide the numeric value in microgram/mL only, without the unit symbol.

As a guide, the following entries are already answered.
[
  {
    "compound": "CC(C)(O/N=C(\\C(=O)N[C@@H]1C(=O)N2C(C(=O)O)=C(C=Cc3ccc(C[N+]4(C)CCc5ccc(O)c(O)c5C4)cc3)CS[C@H]12)c1csc(N)n1)C(=O)O (mixture of isomers) [Compound 442]",
    "recorded measurement": 1
  },
  {
    "compound": "CC(C)(O/N=C(\\C(=O)N[C@@H]1C(=O)N2C(C(=O)O)=C(C=Cc3ccc(C[N+]4(C)Cc5cc(O)c(O)c(Cl)c5C4)cc3)CS[C@H]12)c1csc(N)n1)C(=O)O (mixture of isomers) [Compound 432]",
    "recorded measurement": 0.5
  }
]

Problem: Answer with the recorded Mimimum Inhibitory Concentrations, EA (URMC -3) for the compound listed here: CC(C)(O/N=C(\C(=O)N[C@@H]1C(=O)N2C(C(=O)O)=C(C=Cc3ccc(C[N+]4(C)Cc5c(Cl)c(O)c(O)c(Cl)c5C4)cc3)CS[C@H]12)c1csc(N)n1)C(=O)O (mixture of isomers) [Compound 431]
Result: 1

Problem: Answer with the recorded Mimimum Inhibitory Concentrations, EA (URMC -3) for the compound listed here: CC(C)(O/N=C(\C(=O)N[C@@H]1C(=O)N2C(C(=O)O)=C(C=Cc3ccc(C[n+]4ccc5cc(O)c(O)cc5c4)cc3)CS[C@H]12)c1csc(N)n1)C(=O)O (mixture of isomers) [Compound 435]
Result: 0.5

The origin of these recorded values is patent US20190100534A1.
